# Run description: Storage stability of linalool in skin lotion, GC/HS
# Setup conditions: 5-month storage in the sun at RT
Measure: Sun 5-months GC/HS

{"Mol": "CCCCCCc1ccc(O)cc1O", "Measured": "1666185 peak area count"}
{"Mol": "Oc1cccc(O)c1", "Measured": "3856563 peak area count"}
{"Mol": "Cc1cc(C(C)(C)C)c(O)c(C(C)(C)C)c1", "Measured": "4678449 peak area count"}
{"Mol": "CCc1ccc(O)cc1O", "Measured": "2650924 peak area count"}

----------
# Run description: Storage stability of linalool in skin lotion, GC/HS
# Setup conditions: skin lotion with 1.0% fragrance (linalool 20%), initial

{"Mol": "Cc1cc(C(C)(C)C)c(O)c(C(C)(C)C)c1", "Unit string": "peak area count", "initial GC/HS": 6853529}
{"Mol": "CCCCCCc1ccc(O)cc1O", "Unit string": "peak area count", "initial GC/HS": 2222930}
{"Mol": "Oc1cccc(O)c1", "Unit string": "peak area count", "initial GC/HS": 6088780}
{"Mol": "CCc1ccc(O)cc1O", "Unit string": "peak area count", "initial GC/HS": 3288967}

----------
# reported Sun % Loss; entries follow
# Run description: Storage stability of limonene in skin lotion, GC/HS
# Setup conditions: 5-month storage in the sun at RT
Measure: Sun % Loss (%)

{"Mol": "CCc1ccc(O)cc1O", "Measure": "Sun % Loss", "Measured": 0}
{"Mol": "Oc1cccc(O)c1", "Measure": "Sun % Loss", "Measured": 43.4}
{"Mol": "Cc1cc(C(C)(C)C)c(O)c(C(C)(C)C)c1", "Measure": "Sun % Loss", "Measured": 15.3}
{"Mol": "CCCCCCc1ccc(O)cc1O", "Measure": "Sun % Loss", "Measured": 7.7}

----------
# Run description: Storage stability of linalool in skin lotion, GC/HS
# Setup conditions: 5-month storage in the sun at RT

{"Mol": "Oc1cccc(O)c1", "Unit string": "%", "Sun % Loss": 36.7}
{"Mol": "CCCCCCc1ccc(O)cc1O", "Unit string": "%", "Sun % Loss": 7.5}
{"Mol": "CCc1ccc(O)cc1O", "Unit string": "%", "Sun % Loss": 19.4}
{"Mol": "Cc1cc(C(C)(C)C)c(O)c(C(C)(C)C)c1", "Unit string": "%", "Sun % Loss": 31.4}

----------
# Run description: Storage stability of linalool in skin lotion, GC/HS
# Setup conditions: 5-month storage at 40° C.

{"Mol": "Cc1cc(C(C)(C)C)c(O)c(C(C)(C)C)c1", "Unit string": "peak area count", "40° C. 5-months GC/HS": 4918953}
{"Mol": "Oc1cccc(O)c1", "Unit string": "peak area count", "40° C. 5-months GC/HS": 4286137}
{"Mol": "CCc1ccc(O)cc1O", "Unit string": "peak area count", "40° C. 5-months GC/HS": 2292953}
{"Mol": "CCCCCCc1ccc(O)cc1O", "Unit string": "peak area count", "40° C. 5-months GC/HS": 1466948}

----------
# reported Sun 5-months GC/HS; entries follow
# Run description: Storage stability of limonene in skin lotion, GC/HS
# Setup conditions: 5-month storage in the sun at RT

{"Mol": "CCCCCCc1ccc(O)cc1O", "Sun 5-months GC/HS, peak area count": 34662250}
{"Mol": "Cc1cc(C(C)(C)C)c(O)c(C(C)(C)C)c1", "Sun 5-months GC/HS, peak area count": 32465677}
{"Mol": "CCc1ccc(O)cc1O", "Sun 5-months GC/HS, peak area count": 54753996}
{"Mol": "Oc1cccc(O)c1", "Sun 5-months GC/HS, peak area count": 25743642}

----------
# reported initial GC/HS; entries follow
# Run description: Storage stability of limonene in skin lotion, GC/HS
# Setup conditions: skin lotion with 1.0% fragrance (limonene 20%), initial

{"Mol": "CCCCCCc1ccc(O)cc1O", "Unit string": "peak area count", "initial GC/HS": 40778538}
{"Mol": "Oc1cccc(O)c1", "Unit string": "peak area count", "initial GC/HS": 45478209}
{"Mol": "Cc1cc(C(C)(C)C)c(O)c(C(C)(C)C)c1", "Unit string": "peak area count", "initial GC/HS": 38342803}
{"Mol": "CCc1ccc(O)cc1O", "Unit string": "peak area count", "initial GC/HS": 54736538}

----------
# Run description: Storage stability of limonene in skin lotion, GC/HS
# Setup conditions: 5-month storage at 40° C.
Measure: 40° C. 5-months GC/HS (peak area count)

{"Molecule": "Cc1cc(C(C)(C)C)c(O)c(C(C)(C)C)c1 [BHT Sample, BHT]", "Unit string": "peak area count", "Measured": 26286287}
{"Molecule": "Oc1cccc(O)c1 [Resorcinol]", "Unit string": "peak area count", "Measured": 19260141}
{"Molecule": "CCc1ccc(O)cc1O [4-EthylResorcinol, 4-ethyl resorcinol]", "Unit string": "peak area count", "Measured": 46790409}
{"Molecule": "CCCCCCc1ccc(O)cc1O [4-HexylResorcinol, 4-hexyl resorcinol]", "Unit string": "peak area count", "Measured": 3381932}

----------
# Run description: Storage stability of linalool in skin lotion, GC/HS
# Setup conditions: 5-month storage at 40° C.
# reported 40° C. % Loss; entries follow

{"Mol": "CCCCCCc1ccc(O)cc1O", "40° C. % Loss": "10.2%"}
{"Mol": "CCc1ccc(O)cc1O", "40° C. % Loss": "30.2%"}
{"Mol": "Cc1cc(C(C)(C)C)c(O)c(C(C)(C)C)c1", "40° C. % Loss": "28.2%"}
{"Mol": "Oc1cccc(O)c1", "40° C. % Loss": "29.6%"}

----------
# reported 40° C. % Loss; entries follow
# Run description: Storage stability of limonene in skin lotion, GC/HS
# Setup conditions: 5-month storage at 40° C.
# Procedure: The stability of terpenoid components of typical fragrances was examined in skin care formulations containing 4-substituted resorcinol derivatives to determine the resorcinol's effectiveness toward preventing degradation and loss of terpenoid upon storage. […] With reference to the data in the Tables below, GC/HS measurements were taken on an Agilent 6890 GC/5973 MS using a Gerstel MPS2 Headspace Sampler. […] The GC data is recorded as peak area count for the two fragrance components. […]

{"Compound": "CCCCCCc1ccc(O)cc1O [4-HexylResorcinol, 4-hexyl resorcinol]", "40° C. % Loss": "18.5%"}
{"Compound": "CCc1ccc(O)cc1O [4-EthylResorcinol, 4-ethyl resorcinol]", "40° C. % Loss": "12.9%"}
{"Compound": "Cc1cc(C(C)(C)C)c(O)c(C(C)(C)C)c1 [BHT Sample, BHT]", "40° C. % Loss": "31.7%"}
{"Compound": "Oc1cccc(O)c1 [Resorcinol]", "40° C. % Loss": "57.6%"}

# credit: patent US6858217B2
